All figures here come from ChEMBL document CHEMBL3352604.

assay: Oral bioavailability in fed Sprague-Dawley rat at 100 mg/kg; assay type: ADME, organism-based; conditions: in vivo
reported-property: bioavailability
State the result as a value with its unit after it.

// query bioavailability value for entry COCCCOc1cccc([C@H]2NC(=S)Nc3c2oc2ncccc32)c1
79%

###

test: Clearance in Sprague-Dawley rat at 0.5 mg/kg, iv; format: ADME, organism-based; parameters: dose 0.5 mg/kg, route intravenous; details: in vivo
Provide the reported clearance of each item.
Could you give me the number in mL/min/kg? Just the number is fine.

// query clearance value for entry COCCCOc1cccc([C@H]2NC(=S)Nc3c2oc2ncccc32)c1
50

// query clearance value for entry COCCCOc1cccc([C@H]2NC(=S)NC3=C2C(=O)c2ccccc23)c1
48.3

###

assay: Oral bioavailability in fasted Sprague-Dawley rat at 10 mg/kg; format: ADME, organism-based; conditions: in vivo
reported-property: bioavailability
State the result as a value with its unit after it.

// query bioavailability value for entry COCCCOc1cccc([C@H]2NC(=S)NC3=C2C(=O)c2ccccc23)c1
10%

###

experiment: Clearance in rat liver microsomes; assay type: ADME; settings: read-out: CLH
reported-property: microsomal CLint

// query microsomal CLint value for entry COCCCOc1cncc(C2NC(=S)NC3=C2C(=O)c2ccccc23)c1 (stereo not given)
200 µL/min/mg

// query microsomal CLint value for entry S=C1Nc2c(oc3ncccc23)C(c2cccc(OCc3cccnc3)c2)N1 (stereo not given)
40 µL/min/mg

// query microsomal CLint value for entry COCCCOc1ccnc(C2NC(=S)NC3=C2C(=O)c2ccccc23)c1 (stereo not given)
220 µL/min/mg

// query microsomal CLint value for entry COCCCOc1cccc([C@H]2NC(=S)Nc3c2oc2ncccc32)c1
90 µL/min/mg

// query microsomal CLint value for entry COCCCOc1cccc([C@H]2NC(=S)NC3=C2C(=O)c2ccccc23)c1
230 µL/min/mg

###

Provide the reported microsomal CLint of each item.
experiment: Clearance in human liver microsomes; assay type: ADME; details: read-out: CLH
State the result as a value with its unit after it.

// query microsomal CLint value for entry COCCCOc1cccc([C@H]2NC(=S)NC3=C2C(=O)c2ccccc23)c1
150 µL/min/mg

// query microsomal CLint value for entry COCCCOc1cccc(C2NC(=S)NC3=C2C(=O)c2ccccc23)n1 (centres undefined)
160 µL/min/mg

// query microsomal CLint value for entry COCCCOc1cncc(C2NC(=S)NC3=C2C(=O)c2ccccc23)c1 (centres undefined)
90 µL/min/mg

// query microsomal CLint value for entry COCCCOc1cccc([C@H]2NC(=S)Nc3c2oc2ccccc32)c1
90 µL/min/mg

// query microsomal CLint value for entry S=C1Nc2c(oc3ncccc23)C(c2cccc(OCc3cccnc3)c2)N1 (centres undefined)
100 µL/min/mg

// query microsomal CLint value for entry COCCCOc1cccc([C@H]2NC(=S)Nc3c2oc2ncccc32)c1
30 µL/min/mg

// query microsomal CLint value for entry COCCCOc1cccc(C2NC(=S)Nc3c2oc2c(F)cccc32)c1 (centres undefined)
70 µL/min/mg

// query microsomal CLint value for entry O=C1C2=C(NC(=S)NC2c2cccc(OCc3cccnc3)c2)c2ccccc21 (centres undefined)
150 µL/min/mg

// query microsomal CLint value for entry COCCCOc1ccnc(C2NC(=S)NC3=C2C(=O)c2ccccc23)c1 (centres undefined)
43 µL/min/mg
